Where these numbers come from: ChEMBL document CHEMBL1121604

Test system: Mus musculus
assay.method.text: Protective dose against maximal electroshock in mice after peroral administration
Assay type: functional
assay.setup: po
property.name: log10 ED50 (log10 of the value in mg/kg)
Answers are given as log10 of ED50 in mg/kg.

Reference set, count: 10
compound: Br.Cc1cn2cc(S(N)(=O)=O)sc2n1
property.name: log10 ED50
recorded.measurement: 0.78

compound: CC(=O)Nc1nnc(S(N)(=O)=O)s1 [ACETAZOLAMIDE]
property.name: log10 ED50
recorded.measurement: 1.56

compound: Br.NS(=O)(=O)c1cn2ccnc2s1
property.name: log10 ED50
recorded.measurement: 1.20

compound: Br.Cc1cn2nc(S(N)(=O)=O)sc2n1
property.name: log10 ED50
recorded.measurement: 0.70

compound: Br.NS(=O)(=O)c1nn2ccnc2s1
property.name: log10 ED50
recorded.measurement: 0.90

compound: NS(=O)(=O)c1nn2cc(-c3ccccc3)nc2s1
property.name: log10 ED50
recorded.measurement: 1.20

compound: CC(C)(C)c1cn2cc(S(N)(=O)=O)sc2n1
property.name: log10 ED50
recorded.measurement: 0.85

compound: CC(=O)/N=c1/sc(S(N)(=O)=O)nn1C [METHAZOLAMIDE]
property.name: log10 ED50
recorded.measurement: 1.08

compound: Br.NS(=O)(=O)c1nn2cc(C34CC5CC(CC(C5)C3)C4)nc2s1
property.name: log10 ED50
recorded.measurement: 0.78

compound: Br.Cc1nc2sc(S(N)(=O)=O)nn2c1C
property.name: log10 ED50
recorded.measurement: 1.08

Could you tell me which log10 ED50 is on file for NS(=O)(=O)c1nn2cc(-c3ccc(O)cc3)nc2s1 ?
1.00

Could you tell me which log10 ED50 is on file for Br.CCc1nc2sc(S(N)(=O)=O)nn2c1C ?
0.90

Could you tell me which log10 ED50 is on file for CC(C)(C)c1cn2nc(S(N)(=O)=O)sc2n1 ?
0.41

Could you tell me which log10 ED50 is on file for Br.CCc1cn2nc(S(N)(=O)=O)sc2n1 ?
0.70

----------
assay.method.text: Partition coefficient (logP)
Type: physicochemical
assay.setup: octanol/water
property.name: logP

Could you tell me which logP is on file for CC(=O)/N=c1/sc(S(N)(=O)=O)nn1C [METHAZOLAMIDE] ?
0.2
